System: HS 578T breast
Test: NCI-60 one-dose screen, 48 h (100 = growth as untreated, 0 = no growth, -100 = all killed)
Conditions: 10 µM unless noted
About 83,000 compounds went through this panel and 20% of them were active in at least one assay; those are over-represented in the sample as a whole. Calls of active or inactive are those of the source. Rule for the calls: active = growth percent below 10; inactive = the rest.
# growth values compiled below
MEASURED ENDPOINT: growth

* COc1cc(OC)c(NC(=O)C(Sc2nc(C)cc(C)c2C#N)c2ccccc2)cc1Cl (stereo not drawn) | 86.7% (inactive)
* Cc1onc(-c2c(F)cccc2Cl)c1-c1ncc(-c2ccc(Br)cc2)o1 | 66.6% (inactive)
* NC(=S)N/N=C/c1ccc(Cl)cc1 | 112% (inactive)
* COc1ccc(C)cc1NC(=O)SC(C)C | 102% [100 µM] (inactive)
* CCOc1ccc(C(=O)O)cc1 | 95.3% (inactive)
* Cc1cc(Cc2ccccc2)c(O)c(Cc2ccccc2)c1 | 106% (inactive)
* CC(=O)Nc1ccc(C(=O)c2ccc(S(=O)(=O)Nc3ccccc3)cc2)cc1 | 127% (inactive)
* C=CCC(O)C=C (stereo not drawn) | 101% (inactive)
* O=C(O)c1ccc(OCc2ccccc2)cc1 | 96% (inactive)
* O=c1cc(Cl)nc2ccccn12 | 104% (inactive)
* CC1(c2ccccc2)CO1 (stereo not drawn) | 97.4% (inactive)
* C/C=C/C1OCC(CC)C(CCC)O1 (stereo not drawn) | 107% (inactive)
* O=C(NCc1ccccc1)c1cccc([N+](=O)[O-])c1 | 91.2% (inactive)
